Where do the numbers come from? From patent US20130209543A1.

// pIC50 lookup, one value per entry
- targetOrTestSystem: mTOR (Homo sapiens, UniProt P42345)
- Construct: purchased Invitrogen
- assayOverview: mTOR kinase inhibition assay
- Format: biochemical
- conditionParameters: Table 2; read-out: mTORC IC50
pIC50: −log10 of the molar value.

Here is how some molecules turned out for pIC50.
Exercise: I am curious: what pIC50 value has been reported for CC(C)n1nc(-c2cc3cc(O)cc(Cl)c3[nH]2)c2c(N)ncnc21 ?
Solution: > 8.30

Exercise: Repeat for the following molecule: Nc1ncnc2c1c(-c1cc3cc(O)ccc3[nH]1)nn2C1CCOCC1
Solution: > 8.30

Exercise: // query: CC(C)N1CCC(n2nc(-c3cc4cc(O)ccc4[nH]3)c3c(N)ncnc32)CC1
Solution: 6.30 to 7.00

Exercise: And what about the molecule Nc1ncnc2c1c(-c1cc3cc(O)ccc3[nH]1)nn2C1CC(N2CCOCC2)C1 (stereo not drawn) ?
Solution: 8.00 to 8.30

Exercise: Please answer likewise for COc1cc(F)c2[nH]c(-c3nn(C(C)C)c4ncnc(N)c34)cc2c1
Solution: < 6.30

Now let's try a different one.
Exercise: Request the reported pIC50 associated with COc1ccc2[nH]c(-c3nn(C(C)C)c4ncnc(N)c34)cc2n1
Solution: < 6.30

* * *

The entries below come with measured pIC50 values attached.
- targetOrTestSystem: PI3K β (Homo sapiens, UniProt P42338)
- Sequence (P42338 whole entry, species assumed): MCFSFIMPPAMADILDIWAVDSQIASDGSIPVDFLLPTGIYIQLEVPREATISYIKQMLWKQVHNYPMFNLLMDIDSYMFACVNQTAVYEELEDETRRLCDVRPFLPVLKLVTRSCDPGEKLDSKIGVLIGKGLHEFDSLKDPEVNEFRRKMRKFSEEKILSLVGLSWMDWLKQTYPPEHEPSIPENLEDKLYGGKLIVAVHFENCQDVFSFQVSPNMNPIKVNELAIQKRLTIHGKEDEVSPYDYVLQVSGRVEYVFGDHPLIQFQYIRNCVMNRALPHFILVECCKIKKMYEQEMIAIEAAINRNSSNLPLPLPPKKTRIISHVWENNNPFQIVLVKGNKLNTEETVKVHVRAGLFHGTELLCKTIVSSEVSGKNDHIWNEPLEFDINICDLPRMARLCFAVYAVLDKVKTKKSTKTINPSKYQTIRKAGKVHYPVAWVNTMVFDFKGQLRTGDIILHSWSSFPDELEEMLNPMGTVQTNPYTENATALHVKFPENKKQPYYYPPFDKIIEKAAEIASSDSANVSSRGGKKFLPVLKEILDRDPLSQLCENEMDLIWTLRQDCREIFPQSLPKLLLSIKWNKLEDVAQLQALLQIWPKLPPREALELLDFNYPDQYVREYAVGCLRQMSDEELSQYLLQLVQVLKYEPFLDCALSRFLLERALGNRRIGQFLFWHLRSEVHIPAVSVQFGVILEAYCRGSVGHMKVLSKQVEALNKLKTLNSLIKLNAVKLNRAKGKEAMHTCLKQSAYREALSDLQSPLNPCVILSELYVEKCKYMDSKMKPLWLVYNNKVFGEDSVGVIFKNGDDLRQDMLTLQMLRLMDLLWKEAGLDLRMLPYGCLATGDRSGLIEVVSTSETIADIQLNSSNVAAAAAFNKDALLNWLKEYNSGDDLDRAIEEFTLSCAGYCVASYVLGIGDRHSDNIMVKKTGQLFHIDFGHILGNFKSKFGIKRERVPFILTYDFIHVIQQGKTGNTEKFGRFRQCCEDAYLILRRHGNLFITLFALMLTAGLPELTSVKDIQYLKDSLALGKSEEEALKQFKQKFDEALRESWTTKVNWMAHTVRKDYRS
- Sequence (P27986 whole entry partner, species assumed): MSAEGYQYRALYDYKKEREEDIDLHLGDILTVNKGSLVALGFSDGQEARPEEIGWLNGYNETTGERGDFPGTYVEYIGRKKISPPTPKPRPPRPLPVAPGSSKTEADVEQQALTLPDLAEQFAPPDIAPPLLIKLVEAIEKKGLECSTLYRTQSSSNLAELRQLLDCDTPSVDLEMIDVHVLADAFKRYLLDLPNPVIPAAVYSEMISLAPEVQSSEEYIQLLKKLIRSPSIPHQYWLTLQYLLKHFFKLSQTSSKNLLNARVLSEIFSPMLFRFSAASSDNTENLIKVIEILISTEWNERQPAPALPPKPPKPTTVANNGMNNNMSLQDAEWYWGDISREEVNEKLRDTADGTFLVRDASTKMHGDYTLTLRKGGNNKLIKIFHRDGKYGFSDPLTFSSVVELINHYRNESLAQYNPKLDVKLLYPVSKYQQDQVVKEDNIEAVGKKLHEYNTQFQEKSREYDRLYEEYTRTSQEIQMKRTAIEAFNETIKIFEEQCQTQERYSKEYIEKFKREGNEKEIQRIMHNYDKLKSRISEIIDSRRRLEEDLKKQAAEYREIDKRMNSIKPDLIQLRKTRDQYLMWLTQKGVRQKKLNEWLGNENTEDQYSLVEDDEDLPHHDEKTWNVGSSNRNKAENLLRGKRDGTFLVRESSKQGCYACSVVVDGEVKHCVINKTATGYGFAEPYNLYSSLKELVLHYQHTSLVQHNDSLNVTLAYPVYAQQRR
- assayOverview: PI3K β kinase assay
- Assay type: biochemical
- conditionParameters: Table 1
pIC50: −log10 of the molar value.

Exercise: So what does the record say about pIC50 for Nc1nc2cc(-c3nn(C4CCOCC4)c4ncnc(N)c34)ccc2o1 ?
Solution: > 5.00

Exercise: Item: Cc1nc(N)c2c(-c3ccc4oc(N)nc4c3)nn(C(C)C)c2n1
Solution: < 5.00

Exercise: // next record CC(CO)n1nc(-c2ccc3oc(N)nc3c2)c2c(N)ncnc21 (stereo not shown)
Solution: < 5.00

Others:
Exercise: # get_value(readout='pIC50', item= Nc1nc2cc(-c3cn(C4CCOCC4)c4ncnc(N)c34)ccc2o1 )
Solution: < 5.00

Exercise: // same read-out, input: Nc1nc2cc(-c3nn(C4CCC(N5CCOCC5)CC4)c4ncnc(N)c34)ccc2o1 (stereo not shown)
Solution: < 5.00

Exercise: Now consider Nc1nc2cc(-c3nn(C4CC(=O)C4)c4ncnc(N)c34)ccc2o1 and answer again.
Solution: > 5.00

Exercise: Next molecule: COC(=O)Nc1noc2ccc(-c3nn(C(C)C)c4ncnc(N)c34)cc12
Solution: < 5.00

Exercise: Same lookup for CC(C)(CO)n1nc(-c2ccc3oc(N)nc3c2)c2c(N)ncnc21 , please.
Solution: < 5.00

Exercise: Same read-out for COC(=O)Nc1noc2cc(-c3nn(C(C)C)c4ncnc(N)c34)ccc12 ?
Solution: < 5.00

Exercise: Try the molecule CC(=O)Nc1nc2cc(-c3nn(C(C)C)c4ncnc(N)c34)ccc2o1
Solution: < 5.00

Exercise: Can you handle CC(C)n1cc(-c2ccc3oc(N)nc3c2)c2c(N)ncnc21 next?
Solution: < 5.00

Exercise: Same question for CC(=O)N1CCC(n2nc(-c3ccc4oc(N)nc4c3)c3c(N)ncnc32)CC1 please.
Solution: > 5.00

Exercise: What do you get for CC(C)n1nc(-c2ccc3nc(N)oc3c2)c2c(N)ncnc21 ?
Solution: > 5.00
